Reported POD vs vehicle values for a set of compounds
# Test system: 20032 (donor line of iPSC-derived cardiomyocytes)
# METHOD: POD (EC05) for decrease in beat frequency (negative chronotrope) vs vehicle; higher = less potent (higher point of departure)
# PARTICULARS: exposure time: 90 min
MEASURE_NAME: POD vs vehicle

{"COMPOUND": "O=P(O)(O)CCC(F)(F)C(F)(F)C(F)(F)C(F)(F)C(F)(F)C(F)(F)C(F)(F)C(F)(F)F", "MEASURE_NAME": "POD vs vehicle", "RESULT": "> 100 µM"}
{"COMPOUND": "OCC(F)(F)C(F)(F)C(F)(F)CO", "MEASURE_NAME": "POD vs vehicle", "RESULT": "> 100 µM"}
{"COMPOUND": "OCC(F)(F)C(F)(F)C(F)(F)C(F)F", "MEASURE_NAME": "POD vs vehicle", "RESULT": "> 100 µM"}
{"COMPOUND": "O=S(=O)(O)CCC(F)(F)C(F)(F)C(F)(F)C(F)(F)F", "MEASURE_NAME": "POD vs vehicle", "RESULT": "> 100 µM"}
{"COMPOUND": "O=S(=O)(O)CCC(F)(F)C(F)(F)C(F)(F)C(F)(F)C(F)(F)C(F)(F)C(F)(F)C(F)(F)F", "MEASURE_NAME": "POD vs vehicle", "RESULT": "34.5 µM"}
{"COMPOUND": "O=C(O)C(F)(F)C(F)(F)C(F)(F)C(F)(F)C(F)(F)C(F)(F)C(F)(F)F", "MEASURE_NAME": "POD vs vehicle", "RESULT": "51.5 µM"}
{"COMPOUND": "OCC(F)(F)C(F)(F)C(F)(F)F", "MEASURE_NAME": "POD vs vehicle", "RESULT": "> 100 µM"}
{"COMPOUND": "CN(CCO)S(=O)(=O)C(F)(F)C(F)(F)C(F)(F)C(F)(F)C(F)(F)C(F)(F)C(F)(F)C(F)(F)F [N-Methyl-N-(2-hydroxyethyl)perfluorooctanesulfonamide]", "MEASURE_NAME": "POD vs vehicle", "RESULT": "> 100 µM"}

* * *

# Tested on: 11235 (donor line of iPSC-derived cardiomyocytes)
# METHOD: POD (EC95) for loss of peak frequency (asystole) vs vehicle; higher = less potent (higher point of departure)
# PARTICULARS: exposure time: 90 min

{"COMPOUND": "OCC(F)(F)C(F)(F)C(F)(F)C(F)(F)C(F)(F)C(F)F [Dodecafluoroheptanol]", "ASSAY_TARGET": 11235, "POD vs vehicle": "48.1 µM"}
{"COMPOUND": "O=C(O)C(F)(F)OC(F)(F)C(F)(F)OC(F)(F)C(F)(F)OC(F)(F)C(F)(F)C(F)(F)C(F)(F)F [Perfluoro-3,6,9-trioxatridecanoic_acid]", "ASSAY_TARGET": 11235, "POD vs vehicle": "92.2 µM"}
{"COMPOUND": "O=C(O)C(F)(F)C(F)(F)C(F)(F)C(F)(F)C(=O)O [Octafluoroadipic_acid]", "ASSAY_TARGET": 11235, "POD vs vehicle": "> 100 µM"}
{"COMPOUND": "OCCC(F)(F)C(F)(F)C(F)(F)C(F)(F)C(F)(F)C(F)(F)C(F)(F)C(F)(F)F [8:2 Fluorotelomer alcohol]", "ASSAY_TARGET": 11235, "POD vs vehicle": "> 100 µM"}
{"COMPOUND": "NC(=O)C(F)(F)C(F)(F)C(F)(F)C(F)(F)C(N)=O [Octafluoroadipamide]", "ASSAY_TARGET": 11235, "POD vs vehicle": "> 100 µM"}
{"COMPOUND": "O=C(O)C(F)(F)C(F)(F)OC(F)(F)F [Perfluoro-3-methoxypropanoic_acid]", "ASSAY_TARGET": 11235, "POD vs vehicle": "> 100 µM"}
{"COMPOUND": "OCC(F)(F)C(F)(F)C(F)(F)C(F)F [1H,1H,5H-Perfluoropentanol]", "ASSAY_TARGET": 11235, "POD vs vehicle": "> 100 µM"}
{"COMPOUND": "COC(=O)C(F)(F)C(F)(F)OC(F)(C(F)(F)F)C(F)(F)OC(F)=C(F)F (stereo not given) [Methyl_perfluoro(3-(1-ethenyloxypropan-2-yloxy)propanoate)]", "ASSAY_TARGET": 11235, "POD vs vehicle": "> 100 µM"}
{"COMPOUND": "NC(=O)C(F)(F)C(F)(F)C(F)(F)C(F)(F)F [Nonafluoropentanamide]", "ASSAY_TARGET": 11235, "POD vs vehicle": "> 100 µM"}
{"COMPOUND": "O=C(O)C(F)(F)C(F)(F)C(F)(F)C(F)(F)C(F)(F)C(F)(F)C(F)(F)C(F)(F)C(F)(F)F [Perfluorodecanoic_acid]", "ASSAY_TARGET": 11235, "POD vs vehicle": "67.4 µM"}
{"COMPOUND": "O=C(O)C(F)(F)C(F)(F)C(F)(F)F [Perfluorobutanoic_acid]", "ASSAY_TARGET": 11235, "POD vs vehicle": "> 100 µM"}
{"COMPOUND": "O=C(O)C(F)(F)C(F)(F)C(F)F [2,2,3,3,4,4-Hexafluorobutanoic_acid]", "ASSAY_TARGET": 11235, "POD vs vehicle": "> 100 µM"}
{"COMPOUND": "O=C(O)C(F)(F)C(F)(F)C(F)(F)C(F)(F)C(F)(F)C(F)(F)C(F)(F)C(F)(F)Cl [9-Chloro-perfluorononanoic_acid]", "ASSAY_TARGET": 11235, "POD vs vehicle": "14.7 µM"}
{"COMPOUND": "O=C(O)C(F)(F)C(F)(F)C(F)(F)C(F)(F)C(F)(F)C(F)(F)C(F)(F)C(F)(F)C(F)(F)C(F)(F)F [Perfluoroundecanoic_acid]", "ASSAY_TARGET": 11235, "POD vs vehicle": "95.4 µM"}
{"COMPOUND": "O=S(=O)([O-])C(F)(F)C(F)(F)C(F)(F)C(F)(F)F.[K+] [Potassium_perfluorobutanesulfonate]", "ASSAY_TARGET": 11235, "POD vs vehicle": "> 100 µM"}

* * *

# Tested on: 30145 (donor line of iPSC-derived cardiomyocytes)
# METHOD: POD (EC05) for decrease in beat frequency (negative chronotrope) vs vehicle; higher = less potent (higher point of departure)
# PARTICULARS: exposure time: 90 min
MEASURE_NAME: POD vs vehicle

{"COMPOUND": "O=C(O)CCC(F)(F)C(F)(F)C(F)(F)C(F)(F)C(F)(F)C(F)(F)C(F)(F)F", "MEASURE_NAME": "POD vs vehicle", "RESULT": "> 100 µM"}
{"COMPOUND": "OCC(F)(F)C(F)(F)C(F)(F)C(F)(F)C(F)(F)C(F)F", "MEASURE_NAME": "POD vs vehicle", "RESULT": "19.4 µM"}
{"COMPOUND": "OCCC(F)(F)C(F)(F)C(F)(F)C(F)(F)C(F)(F)C(F)(F)F", "MEASURE_NAME": "POD vs vehicle", "RESULT": "> 100 µM"}
{"COMPOUND": "OCC(F)(F)C(F)(F)C(F)(F)C(F)(F)C(F)(F)C(F)(F)F", "MEASURE_NAME": "POD vs vehicle", "RESULT": "> 100 µM"}
{"COMPOUND": "O=S(=O)(O)CCC(F)(F)C(F)(F)C(F)(F)C(F)(F)C(F)(F)C(F)(F)C(F)(F)C(F)(F)F", "MEASURE_NAME": "POD vs vehicle", "RESULT": "15.3 µM"}
{"COMPOUND": "O=S(=O)(O)C(F)(F)C(F)(F)C(F)(F)C(F)(F)C(F)(F)C(F)(F)C(F)(F)C(F)(F)F", "MEASURE_NAME": "POD vs vehicle", "RESULT": "> 100 µM"}
{"COMPOUND": "O=C(O)C(F)(F)OC(F)(F)C(F)(F)OC(F)(F)F", "MEASURE_NAME": "POD vs vehicle", "RESULT": "> 100 µM"}
{"COMPOUND": "O=C(O)C=CC(F)(C(F)(F)F)C(F)(F)F", "MEASURE_NAME": "POD vs vehicle", "RESULT": "> 100 µM"}
{"COMPOUND": "O=C(O)C(F)(F)C(F)(F)C(F)(F)C(F)(F)C(F)(F)F", "MEASURE_NAME": "POD vs vehicle", "RESULT": "> 100 µM"}
{"COMPOUND": "NS(=O)(=O)C(F)(F)C(F)(F)C(F)(F)C(F)(F)C(F)(F)C(F)(F)F [Perfluorohexanesulfonamide]", "MEASURE_NAME": "POD vs vehicle", "RESULT": "34.9 µM"}
{"COMPOUND": "O=C(O)CCC(F)(F)C(F)(F)C(F)(F)F", "MEASURE_NAME": "POD vs vehicle", "RESULT": "> 100 µM"}
{"COMPOUND": "OCC(F)(F)OC(F)(F)C(F)(F)OC(F)(F)C(F)(F)OC(F)(F)F", "MEASURE_NAME": "POD vs vehicle", "RESULT": "> 100 µM"}
{"COMPOUND": "O=C([O-])C(F)(F)C(F)(F)C(F)(F)C(F)(F)C(F)(F)C(F)(F)C(F)(F)F.[NH4+] [Ammonium_perfluorooctanoate]", "MEASURE_NAME": "POD vs vehicle", "RESULT": "> 100 µM"}
{"COMPOUND": "O=C(O)C(F)(F)C(F)(F)F", "MEASURE_NAME": "POD vs vehicle", "RESULT": "> 100 µM"}
{"COMPOUND": "NC(=O)C(F)(F)C(F)(F)C(F)(F)C(F)F", "MEASURE_NAME": "POD vs vehicle", "RESULT": "> 100 µM"}
